Values from paper PMC9090415

The entries below are paired with their reported % inhibition Apol 40'.
- Target entity: P. falciparum apicoplast DNA polymerase (Pf-apPOL) (Plasmodium falciparum, UniProt Q8ILY1)
- Sequence (Q8ILY1 entry or part of it): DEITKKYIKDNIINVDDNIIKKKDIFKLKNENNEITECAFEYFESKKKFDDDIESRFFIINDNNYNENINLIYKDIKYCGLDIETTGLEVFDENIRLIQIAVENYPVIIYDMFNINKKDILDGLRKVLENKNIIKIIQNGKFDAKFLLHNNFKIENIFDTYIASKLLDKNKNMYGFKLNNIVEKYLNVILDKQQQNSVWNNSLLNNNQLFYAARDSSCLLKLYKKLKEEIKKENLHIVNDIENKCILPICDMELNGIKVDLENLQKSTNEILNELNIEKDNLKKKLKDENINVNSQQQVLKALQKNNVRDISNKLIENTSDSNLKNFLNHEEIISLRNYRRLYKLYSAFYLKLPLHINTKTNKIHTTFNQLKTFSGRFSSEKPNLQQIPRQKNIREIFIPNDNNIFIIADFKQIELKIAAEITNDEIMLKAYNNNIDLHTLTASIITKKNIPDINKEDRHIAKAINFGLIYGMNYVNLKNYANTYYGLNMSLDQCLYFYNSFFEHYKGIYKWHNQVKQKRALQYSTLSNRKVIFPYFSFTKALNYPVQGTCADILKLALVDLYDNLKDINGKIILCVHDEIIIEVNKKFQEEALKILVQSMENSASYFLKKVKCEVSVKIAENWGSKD
- Assay: Fluorescence-based high-throughput DNA polymerase assay (molecular beacon), primary screen and dose-response;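 further: compound concentration given in µM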
- Assay type: biochemical
- Condition context: DRC-2; 40'; conc 2.5
Hi! Could you send only the number? It should be in %, unit omitted.

The cases that follow already have their % inhibition Apol 40' on record.
O=C1NN(c2ccc(Cl)c(Cl)c2)C(=O)/C1=C/c1ccc(-c2ccc3c(c2)C(=O)OC3)o1 : 33
CCOc1nc2cccc(C(=O)OC(C)OC(=O)OC3CCCCC3)c2n1Cc1ccc(-c2ccccc2-c2nnn[nH]2)cc1 (stereo not shown) : 11
Cc1ccc(CNC(=O)c2cnn3c(O)cc(CSc4ccc(Cl)cc4)nc23)cc1 : 32
O=c1nc(/C=C/c2ccc(Br)cc2)oc2ccccc12 : 8
Cc1cccc(C2=N/C(=C\c3ccc([N+](=O)[O-])o3)C(=O)O2)c1 : 12
N#CC(C#N)=C1SCN(c2cccc(Cl)c2)CS1 : 20
C=CCOc1c(Br)cc(Br)cc1/C=C1\SC(=N)NC1=O : 12
Cc1ccc(NC(=O)Cn2ccc3c(=O)[nH]ccc32)c(C)c1 : -3.78

Query the reported % inhibition Apol 40' for P. falciparum apicoplast DNA polymerase (Pf-apPOL) (Plasmodium falciparum, UniProt Q8ILY1); item: `CC(C)CCNC(=O)c1cnn2c(O)cc(CSc3ccc(Cl)cc3)nc12`
-1.08

Field entry: COc1ccccc1C1CC(=O)Oc2cc3c(cc21)OCO3 (stereo not shown)
4.3
